experiment: Human HepG2 cell viability assay in 384 well format; type: toxicity, cell-based; design: dose 125 nL, time 70.5 hour; concentration not given beside the values; settings: HepG2 cells, read-out: Inhibition
A collection of compounds and their measured cytotoxicity at 70.5 h
Number only, in %; omit the unit.

Before answering, review these 5 worked examples.
- compound: "O=C(C1CCS(=O)(=O)CC1)N1C[C@H]2CC[C@@H]1CN(Cc1ccccc1)C2"
  assayValue: 10.4
- compound: "COCCn1ccnc1C1CCCN(C(=O)c2ccccc2C#N)C1 (centres undefined)"
  assayValue: 0.955
- compound: "Cc1cc(-c2cnc(N3CCC(C(N)=O)CC3)nc2C(C)C)on1"
  assayValue: 9.37
- compound: "Cc1ncsc1CCC(=O)N1CCCC1c1cccnc1 (centres undefined)"
  assayValue: -6.95
- compound: "CCn1cnc2c(c(Br)nn2C)c1=O"
  assayValue: -17.1

### Prompt Return cytotoxicity at 70.5 h for the following compound: Cc1cc(C(=O)N2CCCC(n3ccnc3)C2)c(C)n1C1CC1 (centres undefined)
### Response 1.06

### Prompt Look up cytotoxicity at 70.5 h of COCCC1CCCCN1Cc1nc(Cc2cccc(F)c2)no1 (centres undefined) and report it.
### Response -2.75

### Prompt Fill in cytotoxicity at 70.5 h for record `O=C(CCc1ccccc1)N1CCn2cc(CN3CCCC3)nc2C1`
### Response -11.7

### Prompt Fill in reported cytotoxicity at 70.5 h for this entry: c1cnnc(-c2noc(COCC3CCCO3)n2)c1 (centres undefined)
### Response -3.34

### Prompt Determine its reported cytotoxicity at 70.5 h: `CN(CCc1ccccc1)Cc1c(C2CC2)[nH]c2ncccc12`
### Response 2.38

### Prompt Report cytotoxicity at 70.5 h for `CS(=O)(=O)c1ccc(CNC[C@H]2COCc3nc4ccccc4n32)cc1`
### Response 5.94

###

Reported values of cytotoxicity at 70.5 h for individual entries
assay: Human HepG2 cell viability assay in 384 well format; type: toxicity, cell-based; parameters: dose 125 nL, time 70.5 hour; concentration not given beside the values; details: HepG2 cells, read-out: Inhibition
State the answer as a number, implicitly in %.

Below, 4 compounds whose answers are already recorded.
- compound: "O=C(c1ccccn1)N1Cc2nccn2CC(COc2cccnc2)C1 (configuration not stated)"
  assayValue: 22.8
- compound: "Cc1c(C(C)NC2CCN(C(C)C)CC2)cnn1-c1ccc(F)cc1F (configuration not stated)"
  assayValue: -9.98
- compound: "CCn1cc(NC(=O)C2CCN(CCOC(C)C)CC2)cn1"
  assayValue: -1.36
- compound: "COc1ccc(CN(C)C2CSCCSC2)c2cccnc12"
  assayValue: -6.62

### Prompt Give the reported value of cytotoxicity at 70.5 h for this record: `Cc1csc2ncc(-c3ccnc(N4CCCC4)n3)c(=O)n12`
### Response -2.62

### Prompt Answer with reported cytotoxicity at 70.5 h of `CCOc1ccccc1OC1CCN(C(=O)c2cnns2)CC1`
### Response -3.73

### Prompt Provide one value: measured cytotoxicity at 70.5 h of `OCCN(Cc1nc(-c2ccc3c(c2)OCO3)no1)CC1CC1`
### Response 4.42

### Prompt Complete the entry with cytotoxicity at 70.5 h for `CCCC(=O)N1CCCN(C(=O)c2oc(C)nc2C)CC1`
### Response -4.74

### Prompt Output measured cytotoxicity at 70.5 h for this item: `COC[C@@]12CC[C@@H](N3CCOCC3)C[C@H]1CCN(c1nc(CO)cs1)C2`
### Response 10.8

### Prompt Name the recorded cytotoxicity at 70.5 h of the item `O=C(Cn1cnc(NC(=O)CC2CCCC2)n1)NCc1ccccc1` in your answer.
### Response 1.33

### Prompt Answer with reported cytotoxicity at 70.5 h of `CNc1ncc(CN(C)C(=O)CCc2cc3n(n2)CCCNC3)cn1`
### Response -9.14

### Prompt Note down cytotoxicity at 70.5 h recorded for `COc1ccc(Cl)cc1CCNC(=O)NCc1ncnn1C`
### Response -13.1

Sourced from ChEMBL document CHEMBL3507680
